# target system: T1, Mcl-1, Q07820
# T1 chain: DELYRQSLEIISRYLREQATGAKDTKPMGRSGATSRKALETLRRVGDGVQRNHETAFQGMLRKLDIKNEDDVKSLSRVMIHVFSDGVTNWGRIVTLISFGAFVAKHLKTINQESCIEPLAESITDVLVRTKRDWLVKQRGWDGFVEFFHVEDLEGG
# protocol: peptide SPOT array, c-Myc-tagged receptor at 1 uM or 100 nM, anti-c-Myc-Cy3
The label rule met is reserved for SPOT signal as a fraction of Bim BH3's signal on the same receptor and array strictly under 0.04; rule not met covers values equal to or above it.

| binder | group label |
| --- | --- |
| QLQTLPYVGFLEHIGRILDLQLEDNK [SLITRK6] | rule met |
| FKAWGKFGGADCRYADEMKEIQERQR [PURB] | rule not met |
| IKEAADIIQKLHLIAQELPFDRFSEV [EXOC5] | rule not met |
| YIVLGLRKTTDQKVGKEVAELVGRVG [NLRX1] | rule not met |
| SQGDKRVAFFMRKGLDCLSKWVGESE [ATAD2] | rule met |
